Reported phospho-MET ELISA EMAX, MLP29 cells values follow for various binders
# SYSTEM_UNDER_TEST: native mouse MET on living cells (mouse, UniProt P16056 25-1379)
# PROCEDURE_DETAILS: cell-based or functional assay
Write the value in % HGF activity as a bare number.

Reference set (3 entries):
71D6 chimeric llama-human IgG1 mAb (antibody, V domains shown, human IgG1 CH1-CH2-CH3 and human CL lambda; also called 71D6 Human IgG1/lambda) VH: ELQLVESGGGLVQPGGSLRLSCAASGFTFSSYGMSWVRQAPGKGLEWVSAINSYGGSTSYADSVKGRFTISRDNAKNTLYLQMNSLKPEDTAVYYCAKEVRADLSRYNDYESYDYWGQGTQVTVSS VL: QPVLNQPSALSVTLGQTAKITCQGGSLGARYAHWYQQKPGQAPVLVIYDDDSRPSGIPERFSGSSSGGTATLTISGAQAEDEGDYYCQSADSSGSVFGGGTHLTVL    115
76H10 chimeric llama-human IgG1 mAb (antibody, V domains shown, human IgG1 CH1-CH2-CH3 and human CL lambda) VH: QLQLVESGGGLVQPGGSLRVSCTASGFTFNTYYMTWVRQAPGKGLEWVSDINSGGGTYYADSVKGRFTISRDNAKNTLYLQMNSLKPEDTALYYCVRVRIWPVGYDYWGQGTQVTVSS VL: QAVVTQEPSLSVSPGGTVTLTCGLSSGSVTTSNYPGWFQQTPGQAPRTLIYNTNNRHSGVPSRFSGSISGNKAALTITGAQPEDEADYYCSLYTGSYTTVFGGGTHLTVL    64.1
72F8 chimeric llama-human IgG1 mAb (antibody, V domains shown, human IgG1 CH1-CH2-CH3 and human CL lambda) VH: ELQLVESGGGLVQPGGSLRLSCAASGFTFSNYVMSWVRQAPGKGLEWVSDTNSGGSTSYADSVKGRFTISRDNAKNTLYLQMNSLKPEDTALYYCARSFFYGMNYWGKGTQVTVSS VL: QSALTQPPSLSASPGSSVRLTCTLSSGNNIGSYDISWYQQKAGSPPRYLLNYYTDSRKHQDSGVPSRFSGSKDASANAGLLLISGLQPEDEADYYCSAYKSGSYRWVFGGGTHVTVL    66.8

Prompt: Recorded phospho-MET ELISA EMAX, MLP29 cells of 71G3 chimeric llama-human IgG1 mAb (antibody, V domains shown, human IgG1 CH1-CH2-CH3 and human CL lambda; also called 71G3 Human IgG1/lambda) VH: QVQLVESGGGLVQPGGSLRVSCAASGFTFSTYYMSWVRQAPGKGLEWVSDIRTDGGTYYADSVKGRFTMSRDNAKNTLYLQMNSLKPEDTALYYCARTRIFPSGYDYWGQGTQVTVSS VL: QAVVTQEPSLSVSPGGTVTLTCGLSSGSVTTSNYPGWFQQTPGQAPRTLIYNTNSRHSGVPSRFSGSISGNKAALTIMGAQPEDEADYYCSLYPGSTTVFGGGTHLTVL , please.
Response: 97.8

Prompt: Recorded phospho-MET ELISA EMAX, MLP29 cells of 76G7 chimeric llama-human IgG1 mAb (antibody, V domains shown, human IgG1 CH1-CH2-CH3 and human CL lambda) VH: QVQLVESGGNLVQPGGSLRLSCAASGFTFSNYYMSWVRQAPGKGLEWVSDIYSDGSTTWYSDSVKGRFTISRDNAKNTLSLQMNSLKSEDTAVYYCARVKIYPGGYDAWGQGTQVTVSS VL: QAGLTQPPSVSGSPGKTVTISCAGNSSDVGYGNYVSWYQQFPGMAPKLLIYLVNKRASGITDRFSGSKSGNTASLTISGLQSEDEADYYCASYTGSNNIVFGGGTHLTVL , please.
Response: 71.5
